System: HIV-1
Experiment: Inhibition of HIV-1 production in infected PBMCs (p24 ELISA)
Assay type: cell-based
Settings: Human immunodeficiency virus 1, PBMC, read-out: Activity (IC50)
Attribute: pIC50
Conceptually, pIC50 converts a concentration in mol/L into minus its log10.

FC(F)(F)c1ccnc(Nc2ccc3cc(OCCN4CCOCC4)cc(Cl)c3n2)c1 [Compound of formula (1)]    6.37

Proceed to the following item.
Task: Specify reported pIC50 for the compound shown: FC(F)(F)c1ccnc(Nc2ccc3c(OCCN4CCOCC4)ccc(Cl)c3n2)c1
Output: 4.21
